Values were extracted from patent US12403128B2.

- experimental_protocol: Behavioral toxicity (TOX, TD50), rats
- Assay type: in vivo
- measurement_parameters: rat, in vivo, read-out: TD50 (behavioral toxic dose)
property_label: TD50

## Task Bench note: what TD50 did COc1ccc(-c2nc3ccccc3[nH]2)cc1 show?
## Result > 500 mg/kg

###

- study_system: UniProt O88420
- Sequence (O88420 whole entry): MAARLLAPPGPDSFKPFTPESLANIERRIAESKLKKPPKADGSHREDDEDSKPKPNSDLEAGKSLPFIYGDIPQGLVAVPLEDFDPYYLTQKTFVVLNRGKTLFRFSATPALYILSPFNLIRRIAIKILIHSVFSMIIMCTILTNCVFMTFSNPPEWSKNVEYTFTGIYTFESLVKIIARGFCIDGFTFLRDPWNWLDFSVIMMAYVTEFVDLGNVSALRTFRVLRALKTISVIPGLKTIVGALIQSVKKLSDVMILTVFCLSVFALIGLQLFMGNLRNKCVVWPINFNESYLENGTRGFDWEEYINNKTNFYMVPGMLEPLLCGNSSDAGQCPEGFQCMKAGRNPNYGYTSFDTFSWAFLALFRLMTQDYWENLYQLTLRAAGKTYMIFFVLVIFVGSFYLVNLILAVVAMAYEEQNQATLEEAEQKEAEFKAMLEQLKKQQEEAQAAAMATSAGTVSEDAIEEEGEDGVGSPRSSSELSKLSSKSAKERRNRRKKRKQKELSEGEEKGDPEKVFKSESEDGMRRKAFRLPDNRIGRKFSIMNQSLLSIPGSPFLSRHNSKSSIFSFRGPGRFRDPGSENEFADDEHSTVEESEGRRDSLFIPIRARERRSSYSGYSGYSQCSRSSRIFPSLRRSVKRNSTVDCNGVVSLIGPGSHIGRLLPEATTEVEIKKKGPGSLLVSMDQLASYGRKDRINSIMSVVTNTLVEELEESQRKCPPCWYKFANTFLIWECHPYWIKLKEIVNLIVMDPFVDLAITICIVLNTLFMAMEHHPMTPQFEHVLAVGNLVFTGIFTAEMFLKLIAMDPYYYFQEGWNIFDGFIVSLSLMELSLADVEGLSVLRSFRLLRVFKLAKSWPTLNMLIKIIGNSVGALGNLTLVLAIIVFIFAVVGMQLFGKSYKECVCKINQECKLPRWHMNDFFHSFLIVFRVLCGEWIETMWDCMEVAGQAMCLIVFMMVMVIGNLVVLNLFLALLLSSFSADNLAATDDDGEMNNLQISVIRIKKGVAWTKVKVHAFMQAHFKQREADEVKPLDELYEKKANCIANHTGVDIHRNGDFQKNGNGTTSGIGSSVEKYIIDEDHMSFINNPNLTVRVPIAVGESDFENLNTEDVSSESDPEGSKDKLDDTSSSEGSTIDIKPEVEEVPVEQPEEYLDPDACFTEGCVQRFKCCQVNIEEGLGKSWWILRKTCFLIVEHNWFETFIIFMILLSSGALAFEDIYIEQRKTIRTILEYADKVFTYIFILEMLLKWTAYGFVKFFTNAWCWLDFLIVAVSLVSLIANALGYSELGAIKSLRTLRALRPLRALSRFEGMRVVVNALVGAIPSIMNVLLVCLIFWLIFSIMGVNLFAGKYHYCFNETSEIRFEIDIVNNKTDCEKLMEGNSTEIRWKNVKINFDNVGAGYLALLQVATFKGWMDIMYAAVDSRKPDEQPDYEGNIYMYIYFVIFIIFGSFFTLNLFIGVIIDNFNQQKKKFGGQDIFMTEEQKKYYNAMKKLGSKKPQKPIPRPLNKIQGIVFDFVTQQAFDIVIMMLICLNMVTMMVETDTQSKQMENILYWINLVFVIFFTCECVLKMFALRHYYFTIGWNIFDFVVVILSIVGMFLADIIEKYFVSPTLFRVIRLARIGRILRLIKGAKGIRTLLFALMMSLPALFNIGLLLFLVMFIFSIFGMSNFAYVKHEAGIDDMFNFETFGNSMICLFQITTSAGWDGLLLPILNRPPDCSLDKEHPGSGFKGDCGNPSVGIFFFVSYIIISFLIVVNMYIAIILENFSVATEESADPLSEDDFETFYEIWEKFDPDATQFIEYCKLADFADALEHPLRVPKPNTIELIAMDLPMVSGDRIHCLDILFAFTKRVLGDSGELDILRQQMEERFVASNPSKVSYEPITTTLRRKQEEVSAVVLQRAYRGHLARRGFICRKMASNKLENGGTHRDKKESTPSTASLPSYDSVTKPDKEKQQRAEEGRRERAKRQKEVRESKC
- experimental_protocol: Dose response on rat NaV1.6 channels in HEK293 cells
- measurement_parameters: rat Nav1.6 channel
- Description: Evaluation of Dose Response and Activation Response Compounds on Rat NaV1.6 Channels in Human Embryonic Kidney Cells (HEK293).
Counter-ions that a name gives are not always drawn.
Listed next: entries and their corresponding IC50.
Give the value in µM but do not write µM after it.

compound	property_label	unit_descriptor	numeric_result
Cc1nc(-c2cccc(C(F)(F)F)c2)[nH]c1-c1ccccc1 [MV1504, hydrochloride]	IC50	µM	12
Cc1nc(-c2ccc(Cl)cc2)[nH]c1-c1ccccc1 [MV1502, hydrochloride]	IC50	µM	1.2

From here, focus on the item given below.
## Task Any idea what IC50 came out for Cc1nc(-c2cccc(Cl)c2)[nH]c1-c1ccccc1 on UniProt O88420?
## Result 5.4

###

- study_system: Nav1.6 (Homo sapiens, UniProt Q9UQD0)
- Sequence (Q9UQD0 whole entry): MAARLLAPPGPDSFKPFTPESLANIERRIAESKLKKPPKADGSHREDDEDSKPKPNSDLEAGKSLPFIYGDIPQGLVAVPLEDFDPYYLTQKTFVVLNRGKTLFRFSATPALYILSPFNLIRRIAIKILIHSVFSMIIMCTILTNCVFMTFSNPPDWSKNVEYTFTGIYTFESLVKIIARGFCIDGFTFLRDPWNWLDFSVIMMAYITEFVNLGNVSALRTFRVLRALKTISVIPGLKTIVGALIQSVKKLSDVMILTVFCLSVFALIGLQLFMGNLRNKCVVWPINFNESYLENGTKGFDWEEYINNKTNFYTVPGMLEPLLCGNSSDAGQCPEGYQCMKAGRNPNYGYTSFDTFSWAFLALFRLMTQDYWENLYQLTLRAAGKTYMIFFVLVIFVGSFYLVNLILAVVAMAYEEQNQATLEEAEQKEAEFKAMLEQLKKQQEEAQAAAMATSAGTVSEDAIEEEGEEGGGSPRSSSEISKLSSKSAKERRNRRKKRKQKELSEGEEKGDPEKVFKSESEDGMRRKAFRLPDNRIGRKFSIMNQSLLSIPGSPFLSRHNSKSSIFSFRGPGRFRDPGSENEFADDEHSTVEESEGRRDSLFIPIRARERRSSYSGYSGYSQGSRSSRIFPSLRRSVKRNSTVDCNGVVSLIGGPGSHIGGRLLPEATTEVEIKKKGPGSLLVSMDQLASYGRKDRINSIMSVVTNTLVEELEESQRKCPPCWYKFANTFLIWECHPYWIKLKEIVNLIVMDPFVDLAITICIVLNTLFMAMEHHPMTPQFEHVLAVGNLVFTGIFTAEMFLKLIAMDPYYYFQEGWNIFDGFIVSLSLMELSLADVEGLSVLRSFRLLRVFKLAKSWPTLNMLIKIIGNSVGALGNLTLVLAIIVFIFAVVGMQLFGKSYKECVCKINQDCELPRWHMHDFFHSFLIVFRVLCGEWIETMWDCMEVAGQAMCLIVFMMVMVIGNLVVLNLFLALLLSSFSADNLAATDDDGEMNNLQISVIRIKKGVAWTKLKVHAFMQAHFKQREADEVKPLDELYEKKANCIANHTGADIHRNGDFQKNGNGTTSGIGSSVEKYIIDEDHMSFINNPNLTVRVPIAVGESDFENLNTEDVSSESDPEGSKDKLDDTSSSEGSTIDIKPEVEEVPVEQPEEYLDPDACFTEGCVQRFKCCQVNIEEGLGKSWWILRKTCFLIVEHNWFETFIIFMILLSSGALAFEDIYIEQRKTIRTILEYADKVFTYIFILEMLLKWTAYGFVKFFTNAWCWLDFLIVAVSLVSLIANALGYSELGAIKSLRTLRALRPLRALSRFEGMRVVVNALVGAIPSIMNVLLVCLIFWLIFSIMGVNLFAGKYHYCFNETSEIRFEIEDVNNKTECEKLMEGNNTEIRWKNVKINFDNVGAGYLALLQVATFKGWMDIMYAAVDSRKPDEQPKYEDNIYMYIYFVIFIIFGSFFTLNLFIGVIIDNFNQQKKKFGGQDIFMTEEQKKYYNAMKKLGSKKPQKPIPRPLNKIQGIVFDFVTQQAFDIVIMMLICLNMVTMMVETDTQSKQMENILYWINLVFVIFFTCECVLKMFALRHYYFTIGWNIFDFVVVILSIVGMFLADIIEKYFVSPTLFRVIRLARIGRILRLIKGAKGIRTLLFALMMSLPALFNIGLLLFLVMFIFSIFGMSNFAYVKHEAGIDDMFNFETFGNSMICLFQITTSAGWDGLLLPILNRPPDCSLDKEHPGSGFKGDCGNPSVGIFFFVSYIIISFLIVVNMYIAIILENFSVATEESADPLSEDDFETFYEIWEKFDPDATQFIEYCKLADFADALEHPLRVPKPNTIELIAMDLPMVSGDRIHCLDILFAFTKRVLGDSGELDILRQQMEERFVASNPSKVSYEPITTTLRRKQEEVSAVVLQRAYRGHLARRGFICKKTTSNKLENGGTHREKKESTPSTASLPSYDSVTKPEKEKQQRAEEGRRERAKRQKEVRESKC
- experimental_protocol: % block of Nav1.6 at 100 μM and IC50 (NaV1.6)
- Assay type: cell-based
- measurement_parameters: 100 μM compound
Counter-ions that a name gives are not always drawn.
Quick rule: inhibition at 100 µM of at least 80% means 1.0, below that means 0.0.

molecule	study_system	label
O=[N+]([O-])c1ccccc1-c1nc2ccccc2[nH]1 [MV1070, 2-(2-nitrophenyl)-1H-1,3-benzodiazole]	Nav1.6 (Homo sapiens, UniProt Q9UQD0)	0.0
O=C(O)c1ccc(-c2nc3ccccc3[nH]2)cc1 [MV1080, 4-(1H-1,3-benzodiazol-2-yl)benzoic acid]	Nav1.6 (Homo sapiens, UniProt Q9UQD0)	0.0
Cc1nc(-c2ccc(Cl)cc2)[nH]c1C [MV1365, OXALATE]	Nav1.6 (Homo sapiens, UniProt Q9UQD0)	1.0
CCCc1nc(-c2ccc(Cl)cc2)[nH]c1C [MV1371, OXALATE]	Nav1.6 (Homo sapiens, UniProt Q9UQD0)	1.0
Clc1ccc2nc(-c3ccccc3)[nH]c2c1 [MV1066, 6-chloro-2-phenyl-1H-1,3-benzodiazole]	Nav1.6 (Homo sapiens, UniProt Q9UQD0)	1.0

## Task Item COc1ccc(-c2nc(-c3cccc(NC(=O)c4ccccc4)c3)c[nH]2)cc1 [MV1308, HYDROCHLORIDE] with inhibition at 100 µM of 80% or above?
## Result 0.0

## Task Would you say COc1ccc(-c2nc(C)c(C)[nH]2)cc1 [MV1362, OXALATE] shows inhibition at 100 µM at minimum 80%?
## Result 1.0

## Task Test whether the molecule COc1ccc(C(=O)Nc2ccc(-c3c[nH]c(-c4ccc(OC)cc4)n3)cc2)cc1 [MV1304, HYDROCHLORIDE] records inhibition at 100 µM of 80% or higher.
## Result 0.0

## Task Is it the case that COc1ccccc1-c1nc2ccccc2[nH]1 [MV1073, 2-(2-methoxyphenyl)-1H-1,3-benzodiazole] has inhibition at 100 µM reaching or exceeding 80%?
## Result 0.0

## Task Given COc1ccc(-c2nc3cc(Cl)ccc3[nH]2)cc1 [MV1091] , state whether its inhibition at 100 µM is at least 80%.
## Result 0.0
